# credit: patent US7205305B2

assayed-system: activated p38 (Homo sapiens)
test-method-notes: Inhibition of phosphorylation of EGF receptor peptide ("kinase")
Format: biochemical
test-conditions: inhibition of phosphorylation of EGF receptor peptide by activated p38

>  <molecule>
Cc1ccccc1-c1cccc(N(C(N)=O)c2c(F)cccc2F)n1 [Compound 403]

>  <IC50>
≤ 100 nM

$$$$
>  <molecule>
CCc1ccccc1-c1cccc(C(C(N)=O)c2c(Cl)cccc2Cl)n1 (stereo not drawn) [Compound 377]

>  <IC50>
≤ 100 nM

$$$$
>  <molecule>
Cc1cc(Cl)ccc1Sc1ccc2c(-c3c(Cl)cccc3Cl)c(=O)ncn2n1 [Compound 28]

>  <IC50>
100 to 1000 nM

$$$$
>  <molecule>
COC(=O)c1ccccc1SC1=NN2CNC(=O)C(c3c(Cl)cccc3Cl)=C2C=C1 [Compound 101]

>  <IC50>
100 to 1000 nM

$$$$
>  <molecule>
NC(=O)C(c1cccc(-c2ccccc2CCO)n1)c1c(Cl)cccc1Cl (stereo not drawn) [Compound 378]

>  <IC50>
≤ 100 nM

$$$$
>  <molecule>
O=c1ncn2nc(Sc3ccc(Cl)c(Cl)c3)ccc2c1-c1c(Cl)cccc1Cl [Compound 16]

>  <IC50>
100 to 1000 nM

$$$$
>  <molecule>
NC(=O)C(c1cccc(-c2ccc(C(=O)O)cc2)n1)c1c(Cl)cccc1Cl (stereo not drawn) [Compound 315]

>  <IC50>
≥ 1000 nM

$$$$
>  <molecule>
NC(=O)C(c1cccc(-c2cccc(CO)c2)n1)c1c(Cl)cccc1Cl (stereo not drawn) [Compound 380]

>  <IC50>
100 to 1000 nM

$$$$
>  <molecule>
Cc1ccc(Sc2ccc3c(-c4c(Cl)cccc4Cl)c(=O)ncn3n2)cc1 [Compound 14]

>  <IC50>
≥ 1000 nM

$$$$

---

System: IL-1 production in whole blood
test-method-notes: Inhibition of IL-1 production in LPS-stimulated whole blood ("WB")
Type: cell-based, human
test-conditions: Homo sapiens
pIC50: −log10 of the molar value.
result-type: pIC50

>  <compound>
NC(=O)C(c1ccc(Sc2ccccc2)cn1)c1c(Cl)cccc1Cl (stereo not shown)

>  <test-result>
≤ 6.30

$$$$
>  <compound>
CN(C)/C=N\c1ccc(C2=C3C=CC(Sc4ccc(F)cc4Cl)=NN3CNC2=O)c(Cl)c1

>  <test-result>
6.30 to 6.60

$$$$
>  <compound>
NC(=O)C(c1cccc(-c2ccc(F)cc2)n1)c1c(F)cccc1Cl (stereo not shown)

>  <test-result>
≤ 6.30

$$$$
>  <compound>
N#Cc1ccccc1SC1=NN2CNC(=O)C(c3c(Cl)cccc3Cl)=C2C=C1

>  <test-result>
≤ 6.30

$$$$

---

assayed-system: activated p38 (Homo sapiens, UniProt Q16539)
Sequence (Q16539 whole entry): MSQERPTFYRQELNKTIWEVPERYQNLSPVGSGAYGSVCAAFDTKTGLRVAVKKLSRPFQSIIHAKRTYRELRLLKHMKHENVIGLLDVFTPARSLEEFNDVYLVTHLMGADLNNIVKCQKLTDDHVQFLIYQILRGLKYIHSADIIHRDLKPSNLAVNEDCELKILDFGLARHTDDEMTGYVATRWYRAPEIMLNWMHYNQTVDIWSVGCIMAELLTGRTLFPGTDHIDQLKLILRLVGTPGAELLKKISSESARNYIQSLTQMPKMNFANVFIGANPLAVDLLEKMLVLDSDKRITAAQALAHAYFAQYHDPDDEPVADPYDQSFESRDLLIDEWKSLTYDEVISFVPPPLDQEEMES
test-method-notes: Inhibition of phosphorylation of EGF receptor peptide ("kinase")
test-conditions: inhibition of phosphorylation of EGF receptor peptide by activated p38
pIC50: −log10 of the molar value.
Measured pIC50, listed per entry for reference.

>  <molecule>
O=c1ncn2nc(Sc3ccccc3)ccc2c1-c1ccc(Cl)cc1Cl

>  <pIC50>
≤ 6.00

$$$$
>  <molecule>
CNCc1ccccc1-c1cccc(C(C(N)=O)c2c(Cl)cccc2Cl)n1 (centres unmarked)

>  <pIC50>
≤ 6.00

$$$$
>  <molecule>
NC(=O)C(c1ccc(Sc2ccccc2)nn1)c1ccc(Cl)cc1Cl (centres unmarked)

>  <pIC50>
≤ 6.00

$$$$
>  <molecule>
O=c1ncn2nc(Sc3ccc(F)cc3Cl)ccc2c1-c1c(Cl)cccc1Cl

>  <pIC50>
≥ 7.00

$$$$
>  <molecule>
O=C1NCN2C=C(Sc3ccccc3)C=CC2=C1c1c(Cl)cccc1Cl

>  <pIC50>
6.00 to 7.00

$$$$
>  <molecule>
Cc1ccc(Sc2ccc3c(-c4c(Cl)cccc4Cl)c(=O)ncn3n2)cc1C

>  <pIC50>
≤ 6.00

$$$$
>  <molecule>
O=c1ncn2nc(Sc3ccccc3)ccc2c1-c1c(Cl)cccc1Cl

>  <pIC50>
6.00 to 7.00

$$$$
>  <molecule>
O=c1ncn2nc(Sc3ccc(F)cc3)ccc2c1-c1cc2c(cc1Cl)OCO2

>  <pIC50>
6.00 to 7.00

$$$$
>  <molecule>
Cc1cc(-c2cccc(C(C(N)=O)c3c(Cl)cccc3Cl)n2)ccc1F (centres unmarked)

>  <pIC50>
≥ 7.00

$$$$
>  <molecule>
Cc1cc(F)ccc1-c1cccc(N(C(N)=O)c2c(F)cccc2F)n1

>  <pIC50>
≥ 7.00

$$$$
>  <molecule>
O=C1NCN2N=C(Sc3ccc(F)cc3)C=CC2=C1c1c(Cl)cccc1Cl

>  <pIC50>
≥ 7.00

$$$$
>  <molecule>
COc1ccccc1-c1cccc(C(C(N)=O)c2c(Cl)cccc2Cl)n1 (centres unmarked)

>  <pIC50>
6.00 to 7.00

$$$$
>  <molecule>
O=C1NCN2N=C(Sc3ccccn3)C=CC2=C1c1c(Cl)cccc1Cl

>  <pIC50>
6.00 to 7.00

$$$$
>  <molecule>
CCc1ccccc1Sc1ccc2c(-c3c(Cl)cccc3Cl)c(=O)ncn2n1

>  <pIC50>
6.00 to 7.00

$$$$
>  <molecule>
CN(C)/C=N\c1ccc(-c2c(=O)ncn3nc(Sc4ccc(F)cc4)ccc23)c(Cl)c1

>  <pIC50>
≤ 6.00

$$$$
>  <molecule>
N=C(N)Nc1cc(F)c(F)cc1SC1=NN2CNC(=O)C(c3c(Cl)cccc3Cl)=C2C=C1

>  <pIC50>
≤ 6.00

$$$$
>  <molecule>
NC(=O)C(c1cccc(-c2ccc(Cl)cc2Cl)n1)c1c(F)cccc1Cl (centres unmarked)

>  <pIC50>
6.00 to 7.00

$$$$
>  <molecule>
Cc1cccc(C)c1N(C(N)=O)c1cccc(-c2ccc(F)cc2)n1

>  <pIC50>
6.00 to 7.00

$$$$
>  <molecule>
O=c1ncn2nc(Sc3ccccc3)ccc2c1-c1ccccc1Cl

>  <pIC50>
≤ 6.00

$$$$
>  <molecule>
Nc1cc(F)ccc1SC1=NN2CNC(=O)C(c3c(Cl)cccc3Cl)=C2C=C1

>  <pIC50>
≥ 7.00

$$$$
>  <molecule>
NC(=O)C(c1cccc(-c2cccc([N+](=O)[O-])c2)n1)c1c(F)cccc1Cl (centres unmarked)

>  <pIC50>
≤ 6.00

$$$$
>  <molecule>
Cc1cccc(C)c1C(C(N)=O)c1cccc(-c2ccccc2)n1 (centres unmarked)

>  <pIC50>
6.00 to 7.00

$$$$
>  <molecule>
NC(=O)C(c1cccc(-c2c(F)cc(F)cc2F)n1)c1c(Cl)cccc1Cl (centres unmarked)

>  <pIC50>
≥ 7.00

$$$$
>  <molecule>
O=c1ncn2nc(Sc3ccc(F)c(Cl)c3)ccc2c1-c1c(Cl)cccc1Cl

>  <pIC50>
6.00 to 7.00

$$$$
>  <molecule>
COc1ccc(-c2c(=O)ncn3nc(Sc4ccc(F)cc4)ccc23)c(Cl)c1

>  <pIC50>
6.00 to 7.00

$$$$
>  <molecule>
O=C1NCN2N=C(Sc3ccccc3C(=O)O)C=CC2=C1c1c(Cl)cccc1Cl

>  <pIC50>
6.00 to 7.00

$$$$
>  <molecule>
CSc1ccc(-c2cccc(C(C(N)=O)c3c(F)cccc3Cl)n2)cc1 (centres unmarked)

>  <pIC50>
≤ 6.00

$$$$
>  <molecule>
O=C1NCN2N=C(Sc3ccc(F)cc3Cl)C=CC2=C1c1c(Cl)cccc1Cl

>  <pIC50>
≥ 7.00

$$$$
>  <molecule>
NC(=O)C(c1cccc(-c2ccccc2)n1)c1c(Cl)cccc1Cl (centres unmarked)

>  <pIC50>
≥ 7.00

$$$$
>  <molecule>
NC(=O)C(c1cccc(-c2cccc(Cl)c2)n1)c1c(F)cccc1Cl (centres unmarked)

>  <pIC50>
6.00 to 7.00

$$$$
>  <molecule>
NC(=O)C(c1cccc(-c2ccc(Cl)s2)n1)c1c(Cl)cccc1Cl (centres unmarked)

>  <pIC50>
≤ 6.00

$$$$
>  <molecule>
O=C(CCl)Nc1ccc(-c2c(=O)ncn3nc(Sc4ccc(F)cc4)ccc23)c(Cl)c1

>  <pIC50>
6.00 to 7.00

$$$$
>  <molecule>
NC(=O)C(c1cccc(-c2ccc(F)cc2)n1)c1c(Cl)cccc1Cl (centres unmarked)

>  <pIC50>
6.00 to 7.00

$$$$
>  <molecule>
NC(=O)C(c1cccc(-c2ccc(C=O)cc2)n1)c1c(Cl)cccc1Cl (centres unmarked)

>  <pIC50>
≤ 6.00

$$$$
>  <molecule>
Nc1ccccc1SC1=NN2CNC(=O)C(c3c(Cl)cccc3Cl)=C2C=C1

>  <pIC50>
≥ 7.00

$$$$

---

Measured pIC50, listed per entry for reference.
System: IL-1 production in LPS-stimulated PBMCs
test-method-notes: Inhibition of IL-1 production in LPS-stimulated PBMCs ("cell")
Format: cell-based, human
test-conditions: Homo sapiens, PBMC
pIC50: −log10 of the molar value.
result-type: pIC50

>  <molecule>
Cc1ccc(-c2cccc(C(C(N)=O)c3c(Cl)cccc3Cl)n2)cc1 (stereo not shown)

>  <test-result>
≤ 6.30

$$$$
>  <molecule>
CN(C)C(=O)c1ccccc1Sc1ccc2c(-c3c(Cl)cccc3Cl)c(=O)ncn2n1

>  <test-result>
≤ 6.30

$$$$
>  <molecule>
NC(=O)C(c1cccc(-c2cccc3ccccc23)n1)c1c(Cl)cccc1Cl (stereo not shown)

>  <test-result>
6.30 to 7.00

$$$$
>  <molecule>
O=c1ncn2nc(Sc3ccc(F)cc3[N+](=O)[O-])ccc2c1-c1c(Cl)cccc1Cl

>  <test-result>
≤ 6.30

$$$$
